# reported Cmax; entries follow
Experiment: Single dose oral pharmacokinetic study
Type: in vivo
Conditions: mouse, plasma; Mice oral PK @30 mg/kg
Respond numerically; units are ng/mL and should not be typed.

# count of solved cases: 2
- ITEM_SMILES: "CC(C)C1=C2[C@H]3CC[C@@H]4[C@@]5(C)CC[C@H](OC(=O)[C@H]6C[C@@H](C(=O)O)C6(C)C)C(C)(C)[C@@H]5CC[C@@]4(C)[C@]3(C)CC[C@@]2(C(=O)NC(C)(C)c2ncc(-c3ccccc3)[nH]2)CC1=O"
  Cmax / ng/mL: 15200
- ITEM_SMILES: "CC(C)C1=C2[C@H]3CC[C@@H]4[C@@]5(C)CC[C@H](OC(=O)[C@H]6C[C@@H](C(=O)O)C6(C)C)C(C)(C)[C@@H]5CC[C@@]4(C)[C@]3(C)CC[C@@]2(C(=O)NC(C)(C)c2ncc(-c3ccc(Cl)cc3)[nH]2)CC1=O"
  Cmax / ng/mL: 10000

Look up and state reported Cmax for `CC(C)C1=C2[C@H]3CC[C@@H]4[C@@]5(C)CC[C@H](OC(=O)[C@H]6C[C@@H](C(=O)O)C6(C)C)C(C)(C)[C@@H]5CC[C@@]4(C)[C@]3(C)CC[C@@]2(C(=O)NC(C)(C)CN2CCCC2)CC1=O`
5100

Tell me its Cmax given `CC(C)C1=C2[C@H]3CC[C@@H]4[C@@]5(C)CC[C@H](OC(=O)[C@H]6C[C@@H](C(=O)O)C6(C)C)C(C)(C)[C@@H]5CC[C@@]4(C)[C@]3(C)CC[C@@]2(C(=O)N2CCC[C@H]2CN2CCCC2)CC1=O` as the entry.
17000
